Please go through the items and note down their MIC.
tested on: Vibrio alginolyticus; assay: Antimicrobial activity against Vibrio alginolyticus ATCC 17749 after 18 to 24 hrs by microbroth dilution method; format: functional
Give bare numbers, in µg/mL.

Molecule: O=C(O)c1cn(C2CC2)c2cc(N3CCNCC3)c(F)cc2c1=O [CIPROFLOXACIN]
MIC [µg/mL]: 2

Provide MIC for all items below, preserving their order.
1. CCn1cc(C(=O)O)c(=O)c2cc(F)c(N3CCC(CO)CC3)c(F)c21
2. CCn1cc(C(=O)O)c(=O)c2cc(F)c(N3CCC(NC)CC3)c(F)c21
3. CCn1cc(C(=O)O)c(=O)c2cc(F)c(N3CCN(c4cccc(Cl)c4Cl)CC3)c(F)c21

1
2.5
1

* * *

Exercise: for every item that follows, state its recorded MIC.
test system: Proteus mirabilis; test: Antimicrobial activity against Proteus mirabilis ATCC 7002 after 18 to 24 hrs by microbroth dilution method; type: functional
One number for each entry, in µg/mL.

Examples with answers:
Structure: CCn1cc(C(=O)O)c(=O)c2cc(F)c(N3CCC(CO)CC3)c(F)c21
Target of assay: Proteus mirabilis
Value units: µg/mL
MIC: 1.25

Structure: CCn1cc(C(=O)O)c(=O)c2cc(F)c(N3CCC(NC)CC3)c(F)c21
Target of assay: Proteus mirabilis
Value units: µg/mL
MIC: 1.25

Structure: CCn1cc(C(=O)O)c(=O)c2cc(F)c(N3CCN(c4ccc(F)cc4)CC3)c(F)c21
Target of assay: Proteus mirabilis
Value units: µg/mL
MIC: 1.25

Dear colleague, could you send me MIC for each of the items below? Thanks.
1. CCn1cc(C(=O)O)c(=O)c2cc(F)c(N3CCN(c4ccccc4C#N)CC3)c(F)c21
2. CCn1cc(C(=O)O)c(=O)c2cc(F)c(N3CCC(Br)CC3)c(F)c21

1: 2.5; 2: 5

Here are 4 compounds. What values of MIC were reported for them?
1. CCn1cc(C(=O)O)c(=O)c2cc(F)c(N3CCN(c4ccccc4F)CC3)c(F)c21
2. CCn1cc(C(=O)O)c(=O)c2cc(F)c(N3CCN(c4cccc(Cl)c4Cl)CC3)c(F)c21
3. CCn1cc(C(=O)O)c(=O)c2cc(F)c(N3CCN(Cc4ccccc4)CC3)c(F)c21
4. O=C(O)c1cn(C2CC2)c2cc(N3CCNCC3)c(F)cc2c1=O

[5, 5, 1.5, 6]

Hey, can you go through the list below and give me MIC for every item?
1. CCn1cc(C(=O)O)c(=O)c2cc(F)c(N3CCC(N4CCCCC4)CC3)c(F)c21
2. CCn1cc(C(=O)O)c(=O)c2cc(F)c(N3CCC(C)CC3)c(F)c21
3. CCn1cc(C(=O)O)c(=O)c2cc(F)c(N3CCN(c4ccccc4)CC3)c(F)c21

[1.25, 2.5, 1.5]
